System: Mus musculus
testProtocol: Antinociceptive activity in the hot plate test (central activity) in rodents, when compound administered subcutaneously
Assay type: functional
conditionSet: sc
Could you mark each record T if its ED50 falls strictly under 20 mg/kg, and F if it equals or exceeds it?

Below, 3 compounds whose answers are already recorded.
> print(dat)
                          structureassmiles  assignedlabel
1  CC(=O)O.CCN(CCc1ccc([N+](=O)[O-])cc1)C(=O)CNC(=O)[C@@H](CCCN=C(N)N)NC(=O)[C@H](Cc1ccc(O)cc1)N=C(N)N              T
2  CC(=O)O.CCN(C(=O)CNC(=O)[C@@H](CCCN=C(N)N)NC(=O)[C@@H](N)Cc1ccc(O)cc1)[C@@H](Cc1ccc(Cl)c(Cl)c1)C(N)=O              F
3  CC(=O)O.CCN(C(=O)CNC(=O)[C@@H](CCCN=C(N)N)NC(=O)[C@@H](N)Cc1ccc(O)cc1)[C@@H](Cc1ccc([N+](=O)[O-])cc1)C(N)=O              T

Q: Quick check: does CC(=O)O.CCN(C(=O)CNC(=O)[C@@H](CCCN=C(N)N)NC(=O)[C@@H](N)Cc1ccc(O)cc1)[C@@H](Cc1ccc(F)cc1)C(N)=O have ED50 under 20 mg/kg?
A: T

Q: Quick check: does CC(=O)O.CCN(CCc1ccccc1[N+](=O)[O-])C(=O)CNC(=O)[C@@H](CCCN=C(N)N)NC(=O)[C@H](Cc1ccc(O)cc1)N=C(N)N have ED50 under 20 mg/kg?
A: F

Q: Quick check: does CC(=O)O.CCN(C(=O)CNC(=O)[C@@H](CCCN=C(N)N)NC(=O)[C@@H](N)Cc1ccc(O)cc1)[C@@H](Cc1cccc(F)c1)C(N)=O have ED50 under 20 mg/kg?
A: T

====

Each record here notes measured Ratio.
Organism: Mus musculus
testProtocol: Dose ratio in the presence and absence of the peripheral opioid antagonist in N-methyl-nalorphine in AA writhing mice
Type: functional
Provide a numeric answer; units are not to be included.

> print(dat)
                           structureassmiles  measuredresult
 1  CC(=O)O.CCN(C(=O)CNC(=O)[C@@H](CCCN=C(N)N)NC(=O)[C@@H](N)Cc1ccc(O)cc1)[C@@H](Cc1cccc(F)c1)C(N)=O             2.2
 2  CC(=O)O.CCN(CCc1ccccc1[N+](=O)[O-])C(=O)CNC(=O)[C@@H](CCCN=C(N)N)NC(=O)[C@@H](N)Cc1ccc(O)cc1             6.4
 3  CC(=O)O.CCN(CCc1ccc([N+](=O)[O-])cc1)C(=O)CNC(=O)[C@@H](CCCN=C(N)N)NC(=O)[C@@H](N)Cc1ccc(O)cc1             4.5
 4  CC(=O)O.CCN(Cc1ccc(F)cc1)C(=O)CNC(=O)[C@@H](CCCN=C(N)N)NC(=O)[C@@H](N)Cc1ccc(O)cc1             3.9
 5  CC(=O)O.CCN(C(=O)CNC(=O)[C@@H](CCCN=C(N)N)NC(=O)[C@@H](N)Cc1ccc(O)cc1)[C@@H](Cc1ccccc1F)C(N)=O             3.9
 6  CC(=O)O.CCN(C(=O)CNC(=O)[C@@H](CCCN=C(N)N)NC(=O)[C@@H](N)Cc1ccc(O)cc1)[C@@H](Cc1ccc(Cl)c(Cl)c1)C(N)=O             9.7
 7  CC(=O)O.CCN(CCc1ccc([N+](=O)[O-])cc1)C(=O)CNC(=O)[C@@H](CCCN=C(N)N)NC(=O)[C@H](Cc1ccc(O)cc1)N=C(N)N             9.6
 8  CC(=O)O.CCN(CCc1ccc(F)cc1)C(=O)CNC(=O)[C@@H](CCCN=C(N)N)NC(=O)[C@@H](N)Cc1ccc(O)cc1             4.5
 9  CC(=O)O.CCN(Cc1ccc([N+](=O)[O-])cc1)C(=O)CNC(=O)[C@@H](CCCN=C(N)N)NC(=O)[C@@H](N)Cc1ccc(O)cc1             2.8
10  CC(=O)O.CCN(CCc1ccc(Br)cc1)C(=O)CNC(=O)[C@@H](CCCN=C(N)N)NC(=O)[C@H](Cc1ccc(O)cc1)N=C(N)N             1.5

Sure, the documented Ratio for CC(=O)O.CCN(Cc1ccccc1F)C(=O)CNC(=O)[C@@H](CCCN=C(N)N)NC(=O)[C@H](Cc1ccc(O)cc1)N=C(N)N is 7.8

Sure, the documented Ratio for CC(=O)O.CCN(C(=O)CNC(=O)[C@@H](CCCN=C(N)N)NC(=O)[C@H](Cc1ccc(O)cc1)N=C(N)N)[C@@H](Cc1ccc([N+](=O)[O-])cc1)C(N)=O is 5.1

Sure, the documented Ratio for CC(=O)O.CCN(C(=O)CNC(=O)[C@@H](CCCN=C(N)N)NC(=O)[C@@H](N)Cc1ccc(O)cc1)[C@@H](Cc1ccc(Cl)cc1)C(N)=O is 1.3

Data origin, for the record: ChEMBL document CHEMBL1124464
